Test system Tyrosinase (Homo sapiens), pIC50 listed for each of the compounds.
Note: pIC50 values are expressed as the negative base-10 logarithm of concentration in M.

- COc1ccccc1C(=O)N1CCN(c2ccc(O)cc2)CC1: 5.27

Consider now this further compound.
Query block: Give reported pIC50 for O=C(CN1CCC(Cc2ccccc2)CC1)N1CCN(c2ccc(O)cc2)CC1 (Tyrosinase (Homo sapiens))
Result block: 2.96
